Recorded EC50 for the following compounds
Study system: 5-HT2A (Homo sapiens)
Method notes: PathHunter b-arrestin assay, agonist mode, 5-HT2A
Assay type: cell-based

> print(dat)
                                   compound   result
1  OCC1CCCN1CCc1c[nH]c2ccccc12 (centres unmarked) [Compound 3]  1.15 µM

Here is the next item to consider.
# compound COC(=O)C1CCCN1CCc1c[nH]c2ccccc12 (centres unmarked) [Compound 1, methyl (2-(1H-indol-3-yl)ethyl)prolinate] ; its EC50 = 16.1 µM

* * *

Study system: 5-HT2A (Homo sapiens, UniProt P28223)
Sequence (P28223 whole entry): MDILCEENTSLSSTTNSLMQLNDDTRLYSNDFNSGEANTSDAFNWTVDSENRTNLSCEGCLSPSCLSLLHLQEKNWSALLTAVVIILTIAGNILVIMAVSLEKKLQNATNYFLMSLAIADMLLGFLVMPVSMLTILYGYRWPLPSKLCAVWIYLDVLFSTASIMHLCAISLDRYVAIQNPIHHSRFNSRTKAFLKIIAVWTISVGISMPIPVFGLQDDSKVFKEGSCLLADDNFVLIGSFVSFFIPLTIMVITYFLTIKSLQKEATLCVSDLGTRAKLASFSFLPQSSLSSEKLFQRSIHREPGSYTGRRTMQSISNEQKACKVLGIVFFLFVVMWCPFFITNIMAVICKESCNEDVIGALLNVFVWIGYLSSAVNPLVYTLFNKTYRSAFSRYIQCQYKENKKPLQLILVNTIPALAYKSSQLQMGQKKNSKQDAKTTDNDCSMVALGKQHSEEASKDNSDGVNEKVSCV
Method notes: Calcium mobilization (Ca++ flux) assay, agonist mode, 5-HT2A
Assay type: cell-based
Run parameters: @30 uM; relative to MAX serotonin control
Measurement name: 5-HT2A, Ca++ flux % activation @30 uM (%)
Form entry: value (%) — number only.

So, COC(=O)C1CCCN1CCc1c[nH]c2ccccc12 (stereo not drawn) [Compound 1, methyl (2-(1H-indol-3-yl)ethyl)prolinate] ? Its 5-HT2A, Ca++ flux % activation @30 uM was 78.24

// COC(=O)CN(C)CCc1c[nH]c2ccccc12 [Compound 4] : 5-HT2A, Ca++ flux % activation @30 uM value = 36.92

Looking up CN(CCc1c[nH]c2ccccc12)CC(=O)O [Compound 5] , I found its 5-HT2A, Ca++ flux % activation @30 uM recorded as 24.51

Value of measured 5-HT2A, Ca++ flux % activation @30 uM for the entry CN(CCO)CCc1c[nH]c2ccccc12 [Compound 6] : 42.83

Entry under test: O=C(O)C1CCCN1CCc1c[nH]c2ccccc12 (stereo not drawn) [Compound 2, (2-(1H-indol-3-yl)ethyl)proline] . Its 5-HT2A, Ca++ flux % activation @30 uM was 2.41

// OCC1CCCN1CCc1c[nH]c2ccccc12 (stereo not drawn) [Compound 3] : 5-HT2A, Ca++ flux % activation @30 uM value = 94.73

From: patent US20240116896A1
